test: physchem; conditions: aqueous with cosolvent or surfactant or cyclodextrin, thermodynamic from solid, solubility of progesterone in DSPE-PEG micelles
Readout name: solubility (µg/mL)
Form entry: value (µg/mL) — number only.

Name the reported solubility value associated with the compound "CC(=O)[C@H]1CC[C@H]2[C@@H]3CCC4=CC(=O)CC[C@]4(C)[C@H]3CC[C@]12C"
198

* * *

test: physchem; conditions: aqueous with cosolvent or surfactant or cyclodextrin, thermodynamic from solid, solubility in 10 mg/ml DSPE-PEG
Readout name: solubility

Item under review: CC(=O)[C@H]1CC[C@H]2[C@@H]3CCC4=CC(=O)CC[C@]4(C)[C@H]3CC[C@]12C [progesterone] . Reported solubility?
≤ 198 µg/mL

* * *

experiment: physchem; details: aqueous with cosolvent or surfactant or cyclodextrin, solubility in either SSM or SSC
Readout name: solubility (µg/mL)
Output spec: scalar in µg/mL, unitless text.

Looking for the measured solubility of "C=C(C)[C@@H]1CC[C@]2(C(=O)O)CC[C@]3(C)[C@H](CC[C@@H]4[C@@]5(C)CC[C@H](O)C(C)(C)[C@@H]5CC[C@]43C)[C@@H]12" , can you help?
250

* * *

assay: physchem; settings: aqueous with cosolvent or surfactant or cyclodextrin, thermodynamic from solid, solubility of progesterone in bile salt micelles
Readout name: solubility
Answer format: value, then unit.

# get_value(readout='solubility', item= "CC(=O)[C@H]1CC[C@H]2[C@@H]3CCC4=CC(=O)CC[C@]4(C)[C@H]3CC[C@]12C" )
21 µg/mL
